targetEntity: T1, NHERF1 PDZ1 H27N (1–120) (human, UniProt O14745 1-120, H27N)
T1 construct: the methods describe the mutants in PDZ1 (11-120), so 1-120 may be a misprint of 11-120; also called His27Asn; source: E. coli BL21 (DE3), purified (Ni-NTA-agarose)
T1 sequence (looked up): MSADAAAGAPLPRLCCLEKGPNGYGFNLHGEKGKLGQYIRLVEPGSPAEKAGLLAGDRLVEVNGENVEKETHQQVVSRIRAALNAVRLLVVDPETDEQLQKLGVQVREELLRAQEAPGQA
measurementProtocol: ITC; 25°C; 10 mM Hepes (pH 7.5), 10 mM NaCl, 0.5 mM EDTA, 0.5 mM beta-mercaptoethanol; 25 uM PDZ protein in the cell, NPT2A (200–250 uM) titrated in 19 injections of 2 ul
details: both partners purified
pKd: −log10 of the molar value.

binder: ELPPATPSPRLALPAHHNATRL (type II sodium-dependent phosphate co-transporter (NPT2A, SLC34A1), 22-residue carboxy-terminal fragment; Kept apart from m1 for that reason; also called ligand NPT2A; source: synthetic peptide) [NPT2A peptide (ligand titrated in ITC)]
pKd: 5.28
